// provenance: patent US20230235052A1

Target: T1, human CD19 antigen (human, UniProt P15391 20-291, limits assumed)
T1 sequence (looked up): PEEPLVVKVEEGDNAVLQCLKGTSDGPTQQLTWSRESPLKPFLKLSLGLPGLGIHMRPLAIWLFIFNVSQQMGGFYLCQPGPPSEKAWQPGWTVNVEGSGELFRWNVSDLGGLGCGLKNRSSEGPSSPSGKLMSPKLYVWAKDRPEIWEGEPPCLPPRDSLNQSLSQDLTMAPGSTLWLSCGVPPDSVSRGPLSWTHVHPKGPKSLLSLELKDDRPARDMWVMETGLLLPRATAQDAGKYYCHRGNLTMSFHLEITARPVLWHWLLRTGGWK
Assay: SPR (Biacore), antibody captured via Fc
Procedure: Part of the antibodies in Example 1 were tested for affinity, and the composition of the heavy chain variable regions and the light chain variable regions of the antibodies to be tested are shown in Table 1. HEK293 cells were used to express the antibodies to be tested and Protein A was used for purification. The surface plasmon resonance technique (SPR) was used for determination, and the Fc capture method was used for antibody fixation.
Each entry below carries its reported Kd.

Use the examples below as a reference point.
- humanized CD19 antibody VH3 + VL1 (antibody, V domains shown, also called Antibody No. 7) VH: QVQLQESGPGLVKPSQTLSLTCTVSGVSLPDYGVSWIRQPPGKGLEWIGVIWGSETTYYNSALKSRLTISKDTSKNQVSLKLSSVTAADTAVYYCAKHYYYGGSYAMDYWGQGTTVTVSS VL: DIQMTQSPSSLSASVGDRVTITCRASQDISKYLNWYQQKPGKAPKLLIYHTSRLHSGVPSRFSGSGSGTDFTFTISSLQPEDIATYYCQQGNTLPYTFGGGTKLEIK: 111 nM
- humanized CD19 antibody VH3 + VL2 (antibody, V domains shown, also called Antibody No. 8) VH: QVQLQESGPGLVKPSQTLSLTCTVSGVSLPDYGVSWIRQPPGKGLEWIGVIWGSETTYYNSALKSRLTISKDTSKNQVSLKLSSVTAADTAVYYCAKHYYYGGSYAMDYWGQGTTVTVSS VL: DIQMTQSPSSLSASVGDRVTITCRASQDISKYLNWYQQKPGKAPKLLIYHTSRLHSGVPSRFSGSGSGTDYTFTISSLQPEDIATYYCQQGNTLPYTFGGGTKLEIK: 109 nM

Please examine the following record next.
The recorded Kd for entry humanized CD19 antibody VH1 + VL1 (antibody, V domains shown, also called Antibody No. 1) VH: QVQLQESGPGLVKPSQTLSLTCTVSGVSLPDYGVSWIRQPPGKGLEWIGVIWGSETTYYNSALKSRVTISVDTSKNQFSLKLSSVTAADTAVYYCARHYYYGGSYAMDYWGQGTTVTVSS VL: DIQMTQSPSSLSASVGDRVTITCRASQDISKYLNWYQQKPGKAPKLLIYHTSRLHSGVPSRFSGSGSGTDFTFTISSLQPEDIATYYCQQGNTLPYTFGGGTKLEIK equals 57.6 nM
